Reported melting point values are given for each entry in this list.

Please review the following examples before continuing.
* CC1(C)OCC[C@@H]2[C@H](C(O)CBr)C(=O)N21 (stereo partly specified) | 141 to 142 °C
* Cn1nc(-c2cccc(N3Cc4cc(C(C)(C)C)ccc4C3=O)c2CO)cc(Nc2ccccn2)c1=O | 236 to 237 °C
* Cc1cc(C(=O)CC(O)(c2cc(Cl)cc(Cl)c2)C(F)(F)F)ccc1Br (stereo unspecified) | 141 to 142 °C
* O=C(CN1CCN(c2ccccc2F)CC1)Nc1ccc2c(c1NC(=O)c1ccccc1)C(=O)c1ccccc1C2=O | 228 to 229 °C
* Nc1nc2cc(OCc3ccccc3)ccc2c2c1nc(CCCCNC(=O)Nc1ccccc1)n2CCOc1ccccc1 | 186 to 187 °C

Request: Hello, please tell me recorded melting point for this one: CCCCCCCCCCNC(=O)C1CSC(c2cccnc2)N1 (stereo unspecified)
Response: 88 °C

Request: For the molecule "CCOC(=O)C(=CNC1CC1)C(=O)c1c(C)c(F)c(F)c(F)c1F" , give its reported melting point.
Response: 72 to 74 °C

Request: Return melting point (reported value) for this molecule: "CCOC(=O)c1cnn2c1c(Cl)nc1ccccc12"
Response: 105 to 106 °C

Request: Give the reported value of melting point for this record: "O=c1cc(-c2ccncc2)nc2n(CCCc3c[nH]c4ccccc34)ccn12"
Response: 201 to 203 °C

Request: For "Cc1cc(Cl)cc(OC2=NS(=O)(=O)CS2)c1" , write its melting point.
Response: 151 °C

Request: Give the reported melting point for this molecule. "C=CCNc1nc(NCC=C)nc(NCCC2CC(C)(C)NC(C)(C)C2)n1"
Response: 74 to 75 °C

Request: Supply measured melting point of "Nc1ncc(Sc2ccc(F)cc2F)s1" in your reply.
Response: 116 to 117 °C

Request: Specify measured melting point for "NCCCc1ccc(CCCN)nc1" .
Response: 116 to 119 °C

Request: For the molecule "CN(C)CCNC(=O)c1ccc(-c2cnc3c(c2)N(C(=O)c2ccccc2)CCN3)cc1" , give its reported melting point.
Response: 145 to 147 °C

Request: Look up and report measured melting point for this entry: "O=C(NC(=O)c1c(F)cccc1F)Nc1ccc(-c2ccc(Cl)cc2)c(Cl)n1"
Response: 237 to 241 °C

* * *

Each item that follows carries a reported melting point.

- CCCCNC(=O)Nc1nc2cc(CN3CCN(C(c4ccccc4)c4ccccc4)CC3)ccc2n1C: 196 °C
- CC(=O)N1CCc2c(cccc2NS(=O)(=O)c2ccccc2)C1: 131 to 132 °C
- CCC(CC)N(Cc1ccc(C(=O)OC)cc1)S(=O)(=O)c1ccc(Cl)cc1: 95 to 97 °C

Request: State its melting point: "COc1c(F)c(NCc2ccccc2)c(F)c(OC)c1C(=O)O"
Response: 85 to 86 °C

Request: Quick one: give measured melting point for "Cc1nn(C)c(C)c1S(=O)(=O)N1CCC2(CC1)CSC1=C(O2)c2ccccc2C(=O)C1=O"
Response: 273 to 275 °C

* * *

Listed here are molecules together with their documented melting point.

Some solved cases for reference:
• CCN1C[C@@H](O)[C@H](N(C)C(=O)c2ccc(Cl)cc2)C1 (relative stereo) = 91 to 93 °C
• Cc1nc(COc2ccc(C[C@@H](C)[C@@H](C)Cc3ccc(OCc4csc(C)n4)c(OCc4csc(C)n4)c3)cc2OCc2csc(C)n2)cs1 = 85 to 87 °C
• Nc1ccc(OCC(=O)N2CC=C(c3ccc(F)cc3)CC2)cc1 = 120 to 122 °C
• COc1nccc2c1C(C)(O)c1c([nH]c3ccncc13)C2(C)O (stereo unspecified) = > 250 °C

Request: Retrieve melting point measured for "O=C(c1ccccc1)N1CCC(CN2CCc3c([nH]c4ccccc34)C2)CC1" and print it.
Response: 162 to 164 °C

Request: Answer with reported melting point of "COC(=O)COc1ccc(NC(=O)CCCCCO)cc1"
Response: 87.5 to 90.4 °C

* * *

melting point values for the compounds below.

Below are worked cases with known answers.
- Cc1ccc2c(c1C)C(=O)C(=O)N2: 225 to 226 °C
- C[C@@H](NC(=O)c1sc(-c2ccc(Cl)cc2)nc1C(F)(F)F)[C@](O)(Cn1cncn1)c1ccc(F)cc1F: 78 to 79 °C
- COC(=O)c1c(C)cn2cc(OCc3ccccc3)ccc12: 143 °C

Okay, next one:
Request: // Input: "CCNC(=O)Nc1nc2nc(NCCN(CC)CC)ncc2cc1-c1c(Cl)cccc1Cl" . Output its melting point only.
Response: 86.5 to 89.5 °C

* * *

# Lookup of reported melting point keyed by entry

Some entries whose results are on file:
• OCC1Cc2c(F)ccc(Br)c2O1 (configuration not stated) = 40 to 43 °C
• O=C1N=NC(=O)c2c1[nH]c1cc(C(F)(F)F)ccc21 = 291 to 293 °C
• N#Cc1cc(N)ccc1N1CCOCC1 = 147 to 148 °C
• O=C(/C=C/c1c(-c2ccc(F)cc2)nc2sccn12)c1ccc2ccccc2c1 = 216 to 218 °C
• Cc1nc2n(n1)C(N)(c1ccccc1)c1cc(Cl)ccc1-2 (configuration not stated) = 173 to 175 °C
• C[C@@H]1c2onc(-c3ccc(Cl)cc3)c2CC[C@H]1C(=O)O (relative stereo) = 183 to 186 °C
• CC#CC1CCC(c2ccc(C3CCC(CCC)CC3)cc2)CC1 (configuration not stated) = 134 °C
• CCOC(=O)c1ccc(NCCCc2ccccc2)cc1 = 80 to 83 °C
• CCOCCOCCn1c(C=O)cc2c1CC(c1ccccc1Cl)C1C(=O)NC(=O)C21 (configuration not stated) = 190 to 193 °C
• O=C(O)CC1Cc2ccc(OCc3ccccc3)cc2C1 (configuration not stated) = 127 to 129 °C

Request: Give the reported value of melting point for this record: "CCn1c(N)c(-c2nccn2COCC[Si](C)(C)C)c(=O)c2ccc(-c3ccc(CC(=O)O)cc3)nc21"
Response: 220 °C

* * *

# melting point per entry

* COc1ccc(C(=O)N2CCN(c3ccc(N)c(CCC(=O)O)c3)CC2)cc1OC | 98 to 101 °C
* CC=CC(=O)CS(=O)(=O)C(c1ccc(Cl)cc1)c1ccc(Cl)cc1 | 114 to 116 °C
* Cc1c(C)c2c(c(C)c1OC=O)SC(CCCI)O2 (stereo unspecified) | 91 to 93 °C
* Oc1nc(-c2ccc(Cl)cc2)nc2c1CCCC2 | 255 °C
* CC(=O)N(C)Nc1ccnc2c(NC(=O)c3c(Cl)cccc3Cl)cccc12 | 215 °C
* CCN(CCO)C(=O)C1=C(C(=O)Nc2cc(OC3CCCC3)c(Cl)cc2F)CCCC1 | 132 to 133 °C
* CC1(C)C=Cc2c(ccc3c2C=CC(=O)C3=O)O1 | 189 to 193 °C
* CCN1COc2cc3c(=O)n(CCc4cccc(F)c4)nnc3cc2C1=O | 161 to 163 °C

Request: Provide one value: measured melting point of "O=C(O)Cc1cc(OCc2cccc(Oc3ccccc3)c2)ccc1Nc1c(Cl)cccc1Cl"
Response: 116 to 117 °C

Request: Supply measured melting point of "COC(=O)c1cccc(N)n1" in your reply.
Response: 87 °C

Request: Consider the compound "FC(F)(F)c1ccc(-c2cc(C(F)(F)F)n3ncc(-c4ccncc4)c3n2)cc1C(F)(F)F" and give its recorded melting point.
Response: 209 °C

* * *

Property: melting point

Previously resolved entries follow.
* COC(=O)C(C)(N)Cc1c[nH]c2ccc(OC)cc12 (racemic) | 131 to 132 °C
* CC(COc1c(-c2ccccc2)c(=O)oc2ccccc12)CN1CCCCC1 (centres undefined) | 86 to 87 °C
* CCCCc1c(Cl)nc(N)nc1-c1ccsc1 | 154 to 155 °C

Next compound, please.
Request: Provide only the value of recorded melting point for Cc1cccc(OC(=O)n2c3c(c(=O)n(C4CCCCO4)c2=O)CCC3)c1 (centres undefined)
Response: 155 °C

* * *

# melting point values compiled below

- CCn1c(=O)c2cnn3c2n(c1=O)CC=C3c1cccc(C(F)(F)F)c1: 161 to 163 °C
- CCCCCCCCCCCCS(=O)(=O)Nc1cc(-c2cc3cc(F)c(F)cc3[nH]2)ccc1OC: 148 to 149 °C

Request: Provide only the value of recorded melting point for "Cc1cc(Cc2n[nH]c(=O)c3ccccc23)cc(C)n1"
Response: 229 to 230 °C

Request: Determine its reported melting point: "CCCN(CCC)C(=O)Cc1c(-c2ccccc2)nn2cccnc12"
Response: 103 to 105 °C

* * *

Recorded melting point, one value per entry.

Below: 4 compounds and their reported melting point.
• Cc1cccc2[nH]c(=O)n(S(=O)(=O)c3ccc(Cl)cc3)c(=O)c12 = > 250 °C
• COc1ccc(NC(C)=O)c(OC)c1-c1ccc(C[C@H](NC(=O)c2c(Cl)cccc2Cl)C(=O)O)cc1 = 244 to 245 °C
• CC(C)(C)OC(=O)NC(C(=O)O)c1ccccc1O (stereo unspecified) = 125 °C
• CCn1nc(-c2ccc(OC)c(F)c2)c(-c2ccc(OC)c(F)c2)cc1=O = 178 °C

Request: Name the recorded melting point of the compound listed here: COc1ccc(NC(=O)N2CCc3cc(S(=O)(=O)N4CC(c5ccccc5)NC4=O)ccc32)cc1 (stereo unspecified)
Response: 268 to 270 °C

Request: Specify reported melting point for the compound shown: "Cc1ccc2c(n1)sc1c(Cl)nnnc12"
Response: 188 to 189 °C

Request: Identify the reported melting point for the following entry. COC(=O)C(CC1(C)C(=O)Nc2ccccc21)NC(=O)c1ccc(Cl)cc1 (stereo unspecified)
Response: 201 to 202 °C

Request: Report melting point for "CN(C)C1(c2cccs2)CCC(=O)CC1"
Response: 102 to 103 °C

Request: Assign melting point to the following record: "COC(=S)c1cccc2nc(C)n(Cc3ccc(-c4ccccc4-c4nc(=O)o[nH]4)cc3)c12"
Response: 231 to 232 °C
